# testSystem: Mu-type opioid receptor (Homo sapiens, UniProt P35372)
# Sequence (P35372 whole entry): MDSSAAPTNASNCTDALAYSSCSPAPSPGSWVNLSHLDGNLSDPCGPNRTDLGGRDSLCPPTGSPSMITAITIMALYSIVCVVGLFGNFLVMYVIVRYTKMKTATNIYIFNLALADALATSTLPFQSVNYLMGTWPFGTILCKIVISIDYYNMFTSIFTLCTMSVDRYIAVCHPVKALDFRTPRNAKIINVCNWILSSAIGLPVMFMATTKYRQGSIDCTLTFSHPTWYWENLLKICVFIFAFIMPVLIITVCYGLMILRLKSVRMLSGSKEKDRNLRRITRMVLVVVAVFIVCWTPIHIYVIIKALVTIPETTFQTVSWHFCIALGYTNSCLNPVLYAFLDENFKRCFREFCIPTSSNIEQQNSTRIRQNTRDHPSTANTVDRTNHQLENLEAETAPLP
# assayMethodText: Agonist activity at MOR (unknown origin) expressed in HEK cells assessed as reduction in cAMP accumulation by split luciferase assay relative to DAMGO
# Assay type: functional, cell-based
*1 amine or outer side, *2 acyl side, *3 side chain or, on linkers, in order; H or OH if unused. Where a SMILES comes first, the peptide text is derived from it. Bridges are numbered along the chain shown (N, C = ends). Roman numbers before positions name the chains, in order. [ ]: non-standard residue; d: D form. Dmt = Cc1cc(O)cc(C)c1C[C@H](N)C(=O)O; Cystamine = C(CSSCCN[*:2])N[*:1]
quantityMeasured: Emax (%)

1) N[C@@H](Cc1ccc(O)cc1)C(=O)N[C@@H]1CSSC[C@@H](NC(=O)[C@@H](N)Cc2ccc(O)cc2)C(=O)NCC(=O)N[C@@H](Cc2ccccc2)C(=O)N2CCN(CC2)C(=O)[C@H](Cc2ccccc2)NC(=O)CNC1=O (HELM PEPTIDE1{Y.[dC].G.F}|PEPTIDE2{Y.[dC].G.F}|CHEM1{[C1CN([*:2])CCN1[*:1]]}$PEPTIDE1,PEPTIDE2,2:R3-2:R3|PEPTIDE1,CHEM1,4:R2-1:R1|PEPTIDE2,CHEM1,4:R2-1:R2$$$V2.0) ... 54
2) N[C@@H](Cc1ccc(O)cc1)C(=O)N[C@@H]1CSSC[C@@H](NC(=O)[C@@H](N)Cc2ccc(O)cc2)C(=O)NCC(=O)N[C@@H](Cc2ccccc2)C(=O)NCCSSCCNC(=O)[C@H](Cc2ccccc2)NC(=O)CNC1=O (HELM PEPTIDE1{Y.[dC].G.F}|PEPTIDE2{Y.[dC].G.F}|CHEM1{[C(CSSCCN[*:2])N[*:1]]}$PEPTIDE1,PEPTIDE2,2:R3-2:R3|PEPTIDE1,CHEM1,4:R2-1:R1|PEPTIDE2,CHEM1,4:R2-1:R2$$$V2.0) ... 90
3) Cc1cc(O)cc(C)c1C[C@H](N)C(=O)N[C@@H]1CSSC[C@@H](NC(=O)[C@@H](N)Cc2c(C)cc(O)cc2C)C(=O)NCC(=O)N[C@@H](Cc2ccccc2)C(=O)NCCSSCCNC(=O)[C@H](Cc2ccccc2)NC(=O)CNC1=O (I: H-[Dmt][dC]GF / II: H-[Dmt][dC]GF; disulfide I:2-II:2; linker I:C-II:C via Cystamine) ... 119
